This collection of values is drawn from ChEMBL document CHEMBL1140036.

Kindly state pIC50 for each of the entries shown.
# EXPERIMENTAL TARGET: Gastric inhibitory polypeptide receptor (Homo sapiens, UniProt P48546)
# METHOD SUMMARY: Binding affinity to human cloned GIPR expressed in BHK cells
One number for each entry, as −log10 of the molar value.

Provide each entry's pIC50 from the list below.
1. CC(C)(C)[C@H]1CC[C@H](N(Cc2ccc(C(=O)NC[C@@H](O)C(=O)O)cc2)C(=O)Nc2cc(C(F)(F)F)cc(C(F)(F)F)c2)CC1
2. O=C(NCC(O)C(=O)O)c1ccc(CN(C(=O)Nc2cc(Cl)cc(Cl)c2)c2ccc(C3=CCCCC3)cc2)cc1 (racemic)
3. O=C(NC[C@@H](O)C(=O)O)c1ccc(CN(C(=O)Nc2ccc3c(c2)C(F)(F)OC(F)(F)O3)c2ccc(C3=CCCCC3)cc2)cc1
4. CO[C@H](CNC(=O)c1ccc(CN(C(=O)Nc2cc(Cl)cc(Cl)c2)c2ccc(C3=CCCCC3)cc2)cc1)C(=O)O

[7.06, 6.15, 7.08, 5.52]

* * *

# METHOD SUMMARY: Half life in Sprague-Dawley rat at 2 mg/kg, iv
# Type: ADME, organism-based
# Set-up: dose 2 mg/kg, route intravenous
# CONDITION DESCRIPTION: in vivo
VALUE KIND: half-life

Would you kindly share the measured half-life for "CS(=O)(=O)c1cc(NC(=O)N(Cc2ccc(C(=O)NC[C@@H](O)C(=O)O)cc2)c2ccc(C3=CCCCC3)cc2)ccc1OC(F)(F)F" ? 55 min

Try "O=C(NC[C@@H](O)C(=O)O)c1ccc(CN(C(=O)Nc2cccc(Br)c2)c2ccc(C3CCCCC3)cc2)cc1" next. 72 min

Moving on to "COc1cc(NC(=O)N(Cc2ccc(C(=O)NC[C@@H](O)C(=O)O)cc2)c2ccc(C3=CCCCC3)cc2)cc(C(F)(F)F)c1" 53 min

For each of the items listed, what is its half-life?
1. CC(C)(C)[C@H]1CC[C@H](N(Cc2ccc(C(=O)NC[C@@H](O)C(=O)O)cc2)C(=O)Nc2cc(C(F)(F)F)cc(C(F)(F)F)c2)CC1
2. CSc1cccc(NC(=O)N(Cc2ccc(C(=O)NC[C@@H](O)C(=O)O)cc2)c2ccc(C3CCCCC3)cc2)c1

1. 41 min
2. 43 min

Each molecule below has a recorded value; state its half-life.
1. O=C(NC[C@@H](O)C(=O)O)c1ccc(CN(C(=O)Nc2cc(Cl)cc(Cl)c2)c2ccc(C3=CCCCC3)cc2)cc1
2. O=C(NC[C@@H](O)C(=O)O)c1ccc(CN(C(=O)Nc2cc(Br)cc(C(F)(F)F)c2)c2ccc(C3=CCCCC3)cc2)cc1

1: 53 min; 2: 46 min

* * *

# EXPERIMENTAL TARGET: UniProt:P30082
# Sequence (P30082 whole entry): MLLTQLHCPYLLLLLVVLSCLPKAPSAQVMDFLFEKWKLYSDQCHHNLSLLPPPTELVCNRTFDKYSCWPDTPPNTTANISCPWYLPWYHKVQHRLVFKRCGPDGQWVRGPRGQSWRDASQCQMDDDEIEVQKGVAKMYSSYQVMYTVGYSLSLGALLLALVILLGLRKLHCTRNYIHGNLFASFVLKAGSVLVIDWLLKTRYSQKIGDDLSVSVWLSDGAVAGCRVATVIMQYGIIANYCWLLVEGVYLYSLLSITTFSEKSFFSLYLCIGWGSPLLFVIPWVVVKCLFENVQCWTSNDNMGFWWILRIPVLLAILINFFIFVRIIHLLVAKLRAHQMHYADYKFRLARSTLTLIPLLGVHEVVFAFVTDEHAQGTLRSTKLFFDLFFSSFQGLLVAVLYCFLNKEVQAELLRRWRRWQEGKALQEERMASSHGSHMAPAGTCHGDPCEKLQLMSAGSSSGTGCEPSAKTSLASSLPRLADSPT
# METHOD SUMMARY: Binding affinity to GlucR in rat liver membrane
Please go through the items and note down their IC50.
One number for each entry, in nM.

Give its IC50 value. Item: "O=C(O)CCNC(=O)c1ccc(CN(C(=O)Nc2cc(Cl)cc(Cl)c2)c2ccc(C3=CCCCC3)cc2)cc1" 36

Thanks! And "O=C(NC[C@@H](O)C(=O)O)c1ccc(CN(C(=O)Nc2cc(Cl)cc(Cl)c2)c2ccc(C3=CCCCC3)cc2)cc1" ? 43

Please find the next compound below.
What does the record list as IC50 for CC(C)(C)C1CCC(N(Cc2ccc(C(=O)NCCC(=O)O)cc2)C(=O)Nc2ccc(OC(F)(F)F)cc2)CC1 (stereo not drawn) ? 23

* * *

# EXPERIMENTAL TARGET: UniProt P48546
# Sequence (P48546 whole entry): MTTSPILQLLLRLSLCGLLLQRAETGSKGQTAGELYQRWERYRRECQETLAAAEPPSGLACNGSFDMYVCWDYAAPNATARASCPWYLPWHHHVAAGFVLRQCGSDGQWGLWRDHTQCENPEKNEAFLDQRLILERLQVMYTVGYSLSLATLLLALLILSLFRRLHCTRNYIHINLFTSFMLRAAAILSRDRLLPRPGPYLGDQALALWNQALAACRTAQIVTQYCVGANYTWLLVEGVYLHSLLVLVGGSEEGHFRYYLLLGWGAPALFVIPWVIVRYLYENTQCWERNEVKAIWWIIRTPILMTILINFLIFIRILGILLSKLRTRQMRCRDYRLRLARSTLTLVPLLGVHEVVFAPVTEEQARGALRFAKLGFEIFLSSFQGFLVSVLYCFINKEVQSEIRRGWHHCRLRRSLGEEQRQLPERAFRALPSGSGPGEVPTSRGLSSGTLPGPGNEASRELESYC
# METHOD SUMMARY: Binding affinity to human cloned GIPR expressed in BHK cells
VALUE KIND: pIC50
Give bare numbers, as −log10 of the molar value.

I would be grateful if you could share the reported pIC50 for "O=C(NC[C@@H](O)C(=O)O)c1ccc(CN(C(=O)Nc2ccccc2)c2ccc(C3=CCCCC3)cc2)cc1" . 5.86

Same again, this time with "COc1cc(NC(=O)N(Cc2ccc(C(=O)NC[C@@H](O)C(=O)O)cc2)c2ccc(C3=CCCCC3)cc2)cc(C(F)(F)F)c1" 6.55

And for "O=C(NC[C@H](O)C(=O)O)c1ccc(CN(C(=O)Nc2cc(Cl)cc(Cl)c2)c2ccc(C3=CCCCC3)cc2)cc1" ? 6.35

What do you get for "O=C(NC[C@@H](O)C(=O)O)c1ccc(CN(C(=O)Nc2cc(Br)cc(C(F)(F)F)c2)c2ccc(C3=CCCCC3)cc2)cc1" ? 6.42

Also "O=C(NC[C@@H](O)C(=O)O)c1ccc(CN(C(=O)Nc2cc(Cl)cc(Cl)c2)c2ccc(C3=CCCCC3)cc2)cc1" ? 6.44

Batch request: pIC50 for each of the following molecules.
1. CC(C)(C)c1cccc(NC(=O)N(Cc2ccc(C(=O)NC[C@@H](O)C(=O)O)cc2)c2ccc(C3CCCCC3)cc2)c1
2. Cc1cc(NC(=O)N(Cc2ccc(C(=O)NC[C@@H](O)C(=O)O)cc2)[C@H]2CC[C@H](C(C)(C)C)CC2)cc(C(F)(F)F)c1
3. CSc1cccc(NC(=O)N(Cc2ccc(C(=O)NC[C@@H](O)C(=O)O)cc2)c2ccc(C3CCCCC3)cc2)c1
4. CS(=O)(=O)c1cc(NC(=O)N(Cc2ccc(C(=O)NC[C@@H](O)C(=O)O)cc2)c2ccc(C3=CCCCC3)cc2)ccc1OC(F)(F)F
5. CC(C)(C)[C@H]1CC[C@H](N(Cc2ccc(C(=O)NCCC(=O)O)cc2)C(=O)Nc2cc(C(F)(F)F)cc(C(F)(F)F)c2)CC1

1: 7.13; 2: 7.01; 3: 6.39; 4: 6.30; 5: 7.03

List the reported pIC50 of each molecule below.
1. O=C(NC[C@@H](O)C(=O)O)c1ccc(CN(C(=O)Nc2cccc(Cl)c2)c2ccc(C3=CCCCC3)cc2)cc1
2. O=C(NC[C@@H](O)C(=O)O)c1ccc(CN(C(=O)Nc2cccc(Br)c2)c2ccc(C3CCCCC3)cc2)cc1
3. COc1cc(NC(=O)N(Cc2ccc(C(=O)NC[C@@H](O)C(=O)O)cc2)c2ccc(C3CCCCC3)cc2)cc(C(F)(F)F)c1
4. CC(C)(C)C1CCC(N(Cc2ccc(C(=O)NCCC(=O)O)cc2)C(=O)Nc2ccc(OC(F)(F)F)cc2)CC1 (stereo not given)
5. CC(C)(C)c1ccc(N(Cc2ccc(C(=O)NCCC(=O)O)cc2)C(=O)Nc2ccc(OC(F)(F)F)cc2)cc1

1: 6.39; 2: 6.67; 3: 6.84; 4: 7.55; 5: 7.42

* * *

# EXPERIMENTAL TARGET: Gastric inhibitory polypeptide receptor (Rattus norvegicus)
# Sequence (P43219 whole entry): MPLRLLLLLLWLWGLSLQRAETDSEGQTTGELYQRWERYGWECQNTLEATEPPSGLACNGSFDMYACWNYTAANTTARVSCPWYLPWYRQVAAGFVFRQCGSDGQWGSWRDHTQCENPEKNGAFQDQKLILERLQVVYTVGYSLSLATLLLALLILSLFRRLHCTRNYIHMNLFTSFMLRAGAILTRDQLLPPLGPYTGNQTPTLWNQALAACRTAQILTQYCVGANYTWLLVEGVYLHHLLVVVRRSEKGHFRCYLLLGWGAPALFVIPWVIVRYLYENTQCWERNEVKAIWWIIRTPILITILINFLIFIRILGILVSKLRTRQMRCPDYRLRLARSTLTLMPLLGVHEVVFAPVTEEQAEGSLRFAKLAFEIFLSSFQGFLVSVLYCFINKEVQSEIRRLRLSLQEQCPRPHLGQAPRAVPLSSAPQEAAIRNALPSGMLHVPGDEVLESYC
# METHOD SUMMARY: Binding affinity to GIPR in rat liver membrane
For each of the molecules below, state its pIC50.
One number for each entry, as −log10 of the molar value.

Some solved cases for reference:
Quick one: pIC50 of "O=C(NC[C@@H](O)C(=O)O)c1ccc(CN(C(=O)Nc2cc(Cl)cc(Cl)c2)c2ccc(C3=CCCCC3)cc2)cc1" ? 6.30

Repeat with CC(C)(C)C1CCC(N(Cc2ccc(C(=O)NCCC(=O)O)cc2)C(=O)Nc2ccc(OC(F)(F)F)cc2)CC1 (stereo not drawn) 7.38

Kindly review the next molecule as well.
Which pIC50 value is on record for "O=C(O)CCNC(=O)c1ccc(CN(C(=O)Nc2cc(Cl)cc(Cl)c2)c2ccc(C3=CCCCC3)cc2)cc1" ? 6.67
